target: G. lamblia trophozoites (luciferase expressing, WBC6); test: microbe, parasite or virus in culture; format: cell-based, Giardia lamblia; settings: luciferase expressing G. lamblia trophozoites, 24 hours, D-luciferin bioluminescence read-out; read-out: G. lamblia EC50
pEC50: −log10 of the molar value.
The reader will find reported pEC50 values listed item by item below.
metric: pEC50

1) CN1CCN(CCCOc2ncc(Nc3ncc(-c4ccc(C(F)(F)F)c(F)c4)nc3C(N)=O)cn2)CC1 | 5.90
2) CC(=O)OCC1OC([S-])C(OC(C)=O)C(OC(C)=O)C1OC(C)=O.CCP(CC)CC.[Au+] (stereo not shown) [MMV688978, Auranofin, reference compound] | 5.43
3) O=C(Nc1nnc(-c2ccc(Cl)s2)o1)c1ccc(Cl)s1 | 5.85
